pIC50 values by entry
SUBJECT_OF_TEST: HIV-integrase (Human immunodeficiency virus type 1 group M subtype B)
Construct: Recombinant integrase (0.26 ng) was incubated with the beads
ASSAY_METHOD_TEXT: HIV-Integrase Inhibition Activity (SPA strand transfer assay)
PARTICULARS: recombinant integrase, SPA beads, P33 labeled target DNA; read-out: Activity (IC50 class, HIV-integrase inhibition)
pIC50: −log10 of the molar value.
VALUE_TYPE: pIC50

COC(=O)n1nc(CNC(=O)c2nc3n(c(=O)c2O)CCOC3(C)C)c2ccccc21: 7.00 to 8.70
CC1(C)OCCn2c1nc(C(=O)NCc1nccs1)c(O)c2=O: ≤ 6.00
CC1(C)OCCn2c1nc(C(=O)NCc1cc3ccccc3s1)c(O)c2=O: 7.00 to 8.70
Cc1csc(CNC(=O)c2nc3n(c(=O)c2O)CCOC3(C)C)c1: 7.00 to 8.70
Cc1cc(C#N)c(CNC(=O)c2nc3n(c(=O)c2O)CCOC3(C)C)s1: 7.00 to 8.70
CCCn1ccc(CNC(=O)c2nc3n(c(=O)c2O)CCOC3(C)C)n1: 6.00 to 7.00
CNC(=O)c1ccc(CNC(=O)c2nc3n(c(=O)c2O)CCOC3(C)C)o1: 6.00 to 7.00
CC1(C)OCCn2c1nc(C(=O)NCc1cccs1)c(O)c2=O: 7.00 to 8.70
CC1(C)OCCn2c1nc(C(=O)NCc1ccc(S(C)(=O)=O)o1)c(O)c2=O: 6.00 to 7.00
Cc1cc(Br)c(CNC(=O)c2nc3n(c(=O)c2O)CCOC3(C)C)s1: 7.00 to 8.70
Cc1cc(CNC(=O)c2nc3n(c(=O)c2O)CCOC3(C)C)nn1C: 6.00 to 7.00
CC1(C)OCCn2c1nc(C(=O)NCC1Cc3ccccc3O1)c(O)c2=O (centres unmarked): 7.00 to 8.70
Cn1nc(CNC(=O)c2nc3n(c(=O)c2O)CCOC3(C)C)c2ccccc21: 7.00 to 8.70
CC1(C)OCCn2c1nc(C(=O)NCc1ccc(Cc3ccccc3)o1)c(O)c2=O: 7.00 to 8.70

====

SUBJECT_OF_TEST: HIV-integrase (Human immunodeficiency virus type 1 group M subtype B)
Construct: Recombinant integrase (0.26 ng) was incubated with the beads
ASSAY_METHOD_TEXT: HIV-Integrase Inhibition Activity (SPA strand transfer assay)
PARTICULARS: recombinant integrase, SPA beads, P33 labeled target DNA; read-out: Activity (IC50 class, HIV-integrase inhibition)
pIC50: −log10 of the molar value.
VALUE_TYPE: pIC50

CC1(C)OCCn2c1nc(C(=O)NCc1csc(-c3ccc(Cl)cc3)n1)c(O)c2=O: 6.00 to 7.00
CC1(C)OCCn2c1nc(C(=O)NCc1nc3ccccc3s1)c(O)c2=O: 7.00 to 8.70
CC1(C)OCCn2c1nc(C(=O)NCc1ccsc1)c(O)c2=O: 7.00 to 8.70
CC1(C)OCCn2c1nc(C(=O)NCc1cc(-c3ccccc3)no1)c(O)c2=O: ≤ 6.00
CC1(C)OCCn2c1nc(C(=O)NCCc1c[nH]c3ccc(F)cc13)c(O)c2=O: 7.00 to 8.70
Cc1nc(C)c(CNC(=O)c2nc3n(c(=O)c2O)CCOC3(C)C)s1: 7.00 to 8.70
Cc1ccc(CNC(=O)c2nc3n(c(=O)c2O)CCOC3(C)C)n1C: 7.00 to 8.70
Cc1cc(CNC(=O)c2nc3n(c(=O)c2O)CCOC3(C)C)sc1C: 7.00 to 8.70
Cc1ccc(CNC(=O)c2nc3n(c(=O)c2O)CCN(C)C32CCC2)o1: 7.00 to 8.70
Cc1cc(CNC(=O)c2nc3n(c(=O)c2O)CCOC3(C)C)n(C)n1: 6.00 to 7.00
Cc1ccc(CNC(=O)c2nc3n(c(=O)c2O)CCOC3(C)C)o1: 7.00 to 8.70
Cn1cc(CN(Cc2cn(C)nn2)C(=O)c2nc3n(c(=O)c2O)CCOC3(C)C)nn1: ≤ 6.00
Cc1cc(C)n2nc(CNC(=O)c3nc4n(c(=O)c3O)CCOC4(C)C)nc2n1: ≤ 6.00
CCn1cc(CNC(=O)c2nc3n(c(=O)c2O)CCOC3(C)C)cn1: 6.00 to 7.00
Cc1cc(CNC(=O)c2nc3n(c(=O)c2O)CCOC3(C)C)nn1CCF: 7.00 to 8.70
Cc1ccc(CNC(=O)c2nc3n(c(=O)c2O)CCOC3(C)C)s1: 7.00 to 8.70
Cc1csc(CNC(=O)c2nc3n(c(=O)c2O)CCCC32CCC2)c1: 7.00 to 8.70
Cc1cc(CNC(=O)c2nc3n(c(=O)c2O)CCOC3(C)C)nn1C(F)F: 7.00 to 8.70

====

IC50 values by entry
SUBJECT_OF_TEST: HIV-integrase (Human immunodeficiency virus type 1 group M subtype B, UniProt P12497)
Construct: Recombinant integrase (0.26 ng) was incubated with the beads
ASSAY_METHOD_TEXT: HIV-Integrase Inhibition Activity (SPA strand transfer assay)
PARTICULARS: recombinant integrase, SPA beads, P33 labeled target DNA; read-out: Activity (IC50 class, HIV-integrase inhibition)
VALUE_TYPE: IC50

CNC(=O)c1ccoc1CNC(=O)c1nc2n(c(=O)c1O)CCOC2(C)C: 2 to 100 nM
Cc1cc(CNC(=O)c2nc3n(c(=O)c2O)CCOC3(C)C)nn1C(C)C: 2 to 100 nM
CC1(C)OCCn2c1nc(C(=O)NCc1cn3ccccc3n1)c(O)c2=O: 2 to 100 nM
Cn1cc(CNC(=O)c2nc3n(c(=O)c2O)CCOC3(C)C)nn1: ≥ 1000 nM
CC1(C)OCCn2c1nc(C(=O)NCc1ccco1)c(O)c2=O: 2 to 100 nM
Cc1cc(CNC(=O)c2nc3n(c(=O)c2O)CCOC3(C)C)cs1: 2 to 100 nM
CNC(=O)n1nc(CNC(=O)c2nc3n(c(=O)c2O)CCOC3(C)C)c2ccccc21: 2 to 100 nM
CC(=O)n1nc(CNC(=O)c2nc3n(c(=O)c2O)CCOC3(C)C)c2ccccc21: 2 to 100 nM
Cc1ncc(CNC(=O)c2nc3n(c(=O)c2O)CCOC3(C)C)s1: 2 to 100 nM

====

SUBJECT_OF_TEST: HIV-integrase (Human immunodeficiency virus type 1 group M subtype B)
Construct: Recombinant integrase (0.26 ng) was incubated with the beads
ASSAY_METHOD_TEXT: HIV-Integrase Inhibition Activity (SPA strand transfer assay)
PARTICULARS: recombinant integrase, SPA beads, P33 labeled target DNA; read-out: Activity (IC50 class, HIV-integrase inhibition)
pIC50: −log10 of the molar value.
pIC50 values by entry
VALUE_TYPE: pIC50

CC1(C)OCCn2c1nc(C(=O)NCc1nn(S(C)(=O)=O)c3ccccc13)c(O)c2=O: 7.00 to 8.70
CC1=CC=C(CNC(=O)c2nc3n(c(=O)c2O)CCOC3(C)C)S1(=O)=O: ≤ 6.00
Cc1nn(C)c(C)c1CNC(=O)c1nc2n(c(=O)c1O)CCOC2(C)C: 6.00 to 7.00
CC1(C)OCCn2c1nc(C(=O)NCc1ccc(C(=O)N3CCOCC3)o1)c(O)c2=O: ≤ 6.00
Cc1ncsc1CNC(=O)c1nc2n(c(=O)c1O)CCOC2(C)C: ≤ 6.00
CC1(C)OCCn2c1nc(C(=O)NCc1cnn(-c3ccccc3)c1)c(O)c2=O: ≤ 6.00
CSc1ccc(CNC(=O)c2nc3n(c(=O)c2O)CCOC3(C)C)o1: 7.00 to 8.70
CC1(C)OCCn2c1nc(C(=O)NCc1cc(C(=O)O)co1)c(O)c2=O: ≤ 6.00
Cc1ccc(CNC(=O)c2nc3n(c(=O)c2O)CCCC32CCC2)o1: 7.00 to 8.70
Cc1nnc(CNC(=O)c2nc3n(c(=O)c2O)CCOC3(C)C)o1: ≤ 6.00
Cc1cccc(-n2cc(CNC(=O)c3nc4n(c(=O)c3O)CCOC4(C)C)cn2)c1: ≤ 6.00
Cc1nc(CNC(=O)c2nc3n(c(=O)c2O)CCOC3(C)C)cs1: 6.00 to 7.00
Cn1c(CNC(=O)c2nc3n(c(=O)c2O)CCOC3(C)C)cc2ccccc21: 7.00 to 8.70
CC1(C)OCCn2c1nc(C(=O)NCc1csc(-c3ccccc3)n1)c(O)c2=O: 6.00 to 7.00
CC1(C)OCCn2c1nc(C(=O)NCc1nc3c(s1)CCCCC3)c(O)c2=O: 7.00 to 8.70
Cc1cc(CNC(=O)c2nc3n(c(=O)c2O)CCOC3(C)C)nn1C(C)(C)C: 7.00 to 8.70
CC1(C)OCCn2c1nc(C(=O)NCc1nc3ccccc3[nH]1)c(O)c2=O: ≤ 6.00
Cc1ccc(CNC(=O)c2nc3n(c(=O)c2O)CCCC32CCC2)s1: 7.00 to 8.70
